All figures here come from the supplement of paper PMC3334620.

Consider the following sequences and their measured PBM E-score readings.
Biological target: Ylr278c (UniProt Q05854)
Sequence (Q05854 whole entry): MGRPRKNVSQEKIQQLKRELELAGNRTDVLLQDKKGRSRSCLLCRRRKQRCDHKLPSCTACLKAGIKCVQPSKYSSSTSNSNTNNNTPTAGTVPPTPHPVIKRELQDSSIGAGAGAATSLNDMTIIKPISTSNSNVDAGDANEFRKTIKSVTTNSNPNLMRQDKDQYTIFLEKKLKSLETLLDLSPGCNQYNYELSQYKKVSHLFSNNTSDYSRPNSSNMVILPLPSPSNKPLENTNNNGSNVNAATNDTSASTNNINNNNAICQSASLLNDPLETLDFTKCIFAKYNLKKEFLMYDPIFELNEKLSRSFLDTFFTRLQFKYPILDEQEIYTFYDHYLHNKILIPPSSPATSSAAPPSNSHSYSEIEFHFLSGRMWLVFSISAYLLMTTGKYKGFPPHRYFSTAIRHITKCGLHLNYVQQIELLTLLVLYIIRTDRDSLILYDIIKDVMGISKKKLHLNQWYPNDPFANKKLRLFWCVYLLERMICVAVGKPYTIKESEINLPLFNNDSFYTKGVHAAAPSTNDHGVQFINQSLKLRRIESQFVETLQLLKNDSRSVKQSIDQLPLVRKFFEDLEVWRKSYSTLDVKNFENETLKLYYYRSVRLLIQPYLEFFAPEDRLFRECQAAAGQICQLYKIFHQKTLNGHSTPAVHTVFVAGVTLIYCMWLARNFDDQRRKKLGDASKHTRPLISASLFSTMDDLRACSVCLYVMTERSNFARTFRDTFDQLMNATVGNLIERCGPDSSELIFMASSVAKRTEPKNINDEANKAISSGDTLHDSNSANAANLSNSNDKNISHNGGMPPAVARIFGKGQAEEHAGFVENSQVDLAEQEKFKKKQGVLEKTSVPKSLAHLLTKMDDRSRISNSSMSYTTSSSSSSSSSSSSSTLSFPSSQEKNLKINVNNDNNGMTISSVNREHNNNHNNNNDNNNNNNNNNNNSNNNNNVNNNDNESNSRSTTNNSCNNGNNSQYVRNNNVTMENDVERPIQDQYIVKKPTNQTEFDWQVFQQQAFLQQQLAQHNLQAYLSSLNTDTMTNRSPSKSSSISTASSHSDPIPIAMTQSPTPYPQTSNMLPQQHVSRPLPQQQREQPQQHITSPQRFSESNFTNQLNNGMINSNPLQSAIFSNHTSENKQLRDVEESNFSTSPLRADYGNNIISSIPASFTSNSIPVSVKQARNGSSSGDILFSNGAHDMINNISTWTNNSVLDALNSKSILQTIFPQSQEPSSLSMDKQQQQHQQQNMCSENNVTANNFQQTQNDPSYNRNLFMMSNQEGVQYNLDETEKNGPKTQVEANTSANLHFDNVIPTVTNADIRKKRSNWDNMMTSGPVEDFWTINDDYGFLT
Experiment: PBM E-score (8-mer binding enrichment) (E-score (-0.5 to 0.5)); higher = stronger / more preferred TF binding
Details: protein concentration: 200 nM; construct: GST-DNA-binding domain
In all, about 33,000 sequences were measured (“E-score (-0.5 to 0.5)”: median about -0.054, highest 2% from about 0.39 on). Only a selection was taken, and the highest values are over-represented in it overall.

Below, 5 sequences whose answers are already recorded.
[
  {
    "PRIMARY_SEQUENCE": "CATCGGAA",
    "SUBJECT_OF_TEST": "Ylr278c (UniProt Q05854)",
    "PBM E-score": 0.396
  },
  {
    "PRIMARY_SEQUENCE": "CTTGGCGA",
    "SUBJECT_OF_TEST": "Ylr278c (UniProt Q05854)",
    "PBM E-score": -0.203
  },
  {
    "PRIMARY_SEQUENCE": "CATCGGCG",
    "SUBJECT_OF_TEST": "Ylr278c (UniProt Q05854)",
    "PBM E-score": 0.304
  },
  {
    "PRIMARY_SEQUENCE": "GAAACCTC",
    "SUBJECT_OF_TEST": "Ylr278c (UniProt Q05854)",
    "PBM E-score": 0.0208
  },
  {
    "PRIMARY_SEQUENCE": "GCGTGAGA",
    "SUBJECT_OF_TEST": "Ylr278c (UniProt Q05854)",
    "PBM E-score": -0.0361
  }
]

Please look up its PBM E-score: GATCCGAC
0.285

// next record CGTTCGGA
0.41

// next record GAGGAGTA
0.0495

// next record TCCCTCAA
-0.106

// next record AAGGAGTC
-0.127

// next record GCTGAACA
-0.153
